# Test system: NCI-H226 lung
# Assay Info: NCI-60 one-dose screen, 48 h
# Condition: 10 µM unless noted
The panel holds about 83,000 compounds, 20% with a hit somewhere; the sample as a whole holds those more often. Calls of active or inactive are those of the source. Rule for the calls: active = growth percent below 10; inactive = the rest.
Response enum: true for active, false for inactive

Some solved entries appear below for comparison.
[[record]]
compound = "COc1ccc(C2CC(=O)c3c(nc4ccc(Cl)cc4c3N)C2)cc1 (stereo not given)"
tested_on = "NCI-H226 lung"
cat = "false"

[[record]]
compound = "Cc1ccc(N(CC(=O)Nc2ccc(S(=O)(=O)NC3CCN(C)CC3)cc2)S(=O)(=O)c2ccc(Cl)cc2)cc1"
tested_on = "NCI-H226 lung"
cat = "false"

[[record]]
compound = "O=C1C(=O)c2ccccc2C(O)=C1CCCc1ccc(C2CCCCC2)cc1"
tested_on = "NCI-H226 lung"
cat = "false"

[[record]]
compound = "Cc1ccc(Cc2cnc(NC(=O)/C=C/c3cccc(C)c3)s2)cc1"
tested_on = "NCI-H226 lung"
cat = "false"

[[record]]
compound = "COc1cc2ncnc(Nc3ccc(OCc4cccc(F)c4)c(Cl)c3)c2cc1NC(=O)C1CCCC1"
tested_on = "NCI-H226 lung"
cat = "false"


Query block: // outcome(item) with item = CC1(C)NC2=C(C(Nc3cccnc3)N1)C(c1ccc([N+](=O)[O-])cc1)C(C(=O)c1ccc(N=[N+]=[N-])cc1)O2 (stereo not given)
Result block: false

Query block: Look up the recorded call for `COc1ccccc1CNc1nc(N)nc2[nH]c3ccc(O)cc3c12` in this test.
Result block: false

Query block: Please indicate how the test categorized `Cc1ccc(/C=C(\C#N)c2cc3ccccc3n2C)cc1` .
Result block: false

====

# Test system: HOP-62 NSCLC
# Assay Info: NCI-60 one-dose screen, 48 h
# Condition: 10 µM unless noted
# Description: Growth inhibition of the HOP-62 human Non-Small Cell Lung tumor cell line is measured as a screen for anti-cancer activity. Cells are grown in 96 well plates and exposed to the test compound for 48 hours. Compounds are tested at a single concentration, which is 10^-5 M for most compounds. The reported endpoint is percent growth (GI% or GIPRCNT), where numbers from 0 - 100% represent growth inhibition, and numbers from -100% - 0 represent cell death. […]
The panel holds about 83,000 compounds, 20% with a hit somewhere; the sample as a whole holds those more often. Activity calls are given as the source filed them. The calls were made as follows: active = growth percent below 10; inactive = the rest.
Please reply with one of these outcomes: 1 (active), -1 (inactive)

Please review the following examples before continuing.
[[record]]
compound = "CCN1CCN(c2nc(C)cc(N(CCCNc3ccnc4cc(Cl)ccc34)Cc3ccco3)n2)CC1"
cat = -1

[[record]]
compound = "O=C(O)c1cccc2c1Cc1cc([N+](=O)[O-])ccc1-2"
cat = -1

[[record]]
compound = "Clc1ccccc1-c1nc(Nc2nc3ccccc3s2)nc(C(Cl)(Cl)Cl)n1"
cat = -1

[[record]]
compound = "CN(C)c1ccc(N)c2ccccc12"
cat = -1

[[record]]
compound = "c1ccc(-c2nc(Nc3ccc(-c4nc5ccccc5[nH]4)cc3)nc(N3CCOCC3)n2)cc1"
cat = 1


Query block: Kindly provide the recorded test outcome for the following compound: `CC(=O)Cc1nsc(NC(=O)c2ccoc2COc2ccccc2)n1`
Result block: -1

Query block: Any idea what this test logged for `Nc1c(C(=O)Nc2cccc(Cl)c2)sc2ncc(Cl)cc12` ?
Result block: -1

Query block: Given `C[C@@H](Oc1ccc(C(=O)NS(=O)(=O)C(C)(C)C)cc1C(F)(F)F)c1ccc(Oc2ccccc2)cn1` , state the outcome it received in this test.
Result block: -1

Query block: Lab log entry: CC(=O)OC(C)COc1ccc(-c2ccccc2)cc1 (stereo not given) — outcome as called in the assay?
Result block: -1

Query block: For OCC1OC(n2cnc3c(Cl)ncnc32)CC1O (stereo not given) , what call appears in the results of this test?
Result block: -1

====

Assignment: determine reported growth for the given compounds.
# Test system: SN12C renal
# Assay Info: NCI-60 one-dose screen, 48 h (100 = growth as untreated, 0 = no growth, -100 = all killed)
# Condition: 10 µM unless noted
The panel holds about 83,000 compounds, 20% with a hit somewhere; the sample as a whole holds those more often. Active and inactive are the calls of the source. Rule for the calls: active = growth percent below 10; inactive = the rest.

Would you please look over these solved cases?
[[record]]
compound = "CC(=O)NC1=C(C#N)C(c2ccccc2Cl)c2c(ccc3ccccc23)O1 (stereo not given)"
result = "70.8% (inactive)"

[[record]]
compound = "O=C(Nc1ccc(/C=C2\\SC(=O)N(Cc3ccc(OC(F)(F)F)cc3)C2=O)cc1)c1ccc(Cl)c([N+](=O)[O-])c1"
result = "81.6% (inactive)"

[[record]]
compound = "CCCNc1nc(N(C)O)nc(N(C)O)n1"
result = "47.1% (inactive)"

[[record]]
compound = "Cc1cc(N2CCCCC2)nc(N(CCCNc2ccnc3cc(Cl)ccc23)Cc2ccco2)n1"
result = "36.3% (inactive)"


Now consider a different compound.
Query block: // fetch growth for `Cn1cc(-c2csc(-c3cn(C(=O)OC(C)(C)C)c4ccc(Br)cc34)n2)c2cccnc21` ; system: SN12C renal
Result block: 87.4% (inactive)

====

# Tested on: RXF 393 renal
# Assay Info: NCI-60 one-dose screen, 48 h (100 = growth as untreated, 0 = no growth, -100 = all killed)
# Condition: 10 µM unless noted
The panel holds about 83,000 compounds, 20% with a hit somewhere; the sample as a whole holds those more often.
Can you tell me growth for the items I'm about to list?
One number for each entry, in %.

Some entries whose results are on file:
[[record]]
molecule = "O=C1c2cc3c(cc2-c2c1c1ccc(F)cc1c(=O)n2CCCN1CCOCC1)OCO3"
reported_endpoint = "growth"
quantitative_readout = 70.6

[[record]]
molecule = "O=C(CI)Nc1ccc(O)c2ccccc12"
reported_endpoint = "growth"
quantitative_readout = -89.7

[[record]]
molecule = "N#CC1=C(N)Oc2c(sc3c(F)cccc23)C1c1ccc(Cl)cc1 (configuration not stated)"
reported_endpoint = "growth"
quantitative_readout = 9.87

[[record]]
molecule = "O=C1/C(=C\\c2ccc(Br)o2)SC(=S)N1CCc1ccc(O)cc1"
reported_endpoint = "growth"
quantitative_readout = 51.9

[[record]]
molecule = "CN(C)c1cccc2[nH]c(-c3[nH]ncc3Nc3ccnc(N)n3)nc12"
reported_endpoint = "growth"
quantitative_readout = -86.3

[[record]]
molecule = "Cc1cc(N2CCCC2)nc(N(CCNc2ccnc3cc(Cl)ccc23)Cc2ccco2)n1"
reported_endpoint = "growth"
quantitative_readout = -0.497

[[record]]
molecule = "C=C(C)[C@@H]1CC[C@]2(C)[C@H](CC=C3[C@@H]4CC(C)(C)CC[C@]4(C(=O)OC)CC[C@]32C)[C@@]1(C)CC/C(N)=N/O"
reported_endpoint = "growth"
quantitative_readout = -49.4

[[record]]
molecule = "Nc1c(C(=O)Nc2cccc(Br)c2)sc2nc3c(cc12)C(=O)CCC3"
reported_endpoint = "growth"
quantitative_readout = -1.14

[[record]]
molecule = "NC(N)=N/N=C/c1ccc(-c2ccc(-c3ccc(Cl)cn3)s2)cc1"
reported_endpoint = "growth"
quantitative_readout = 59.2

[[record]]
molecule = "NCCn1cc(-c2nc(-c3c[nH]c4ncccc34)cs2)c2ccccc21"
reported_endpoint = "growth"
quantitative_readout = 84.9


Please give growth, item by item, for the list that follows.
1. COc1ccc2c(c1)C/C(=C\c1cc(-c3ccc4c(c3)OCO4)n[nH]1)C2=O
2. O=C(N/N=C/c1ccccc1SSc1ccccc1/C=N/NC(=O)c1ccccc1)c1ccccc1
3. C=CC(=O)N[C@H](Cc1ccc(-c2cc(Cl)cc(Cl)c2)cc1)[C@H](O)[C@@H](O)C(=O)O
4. COc1cc(-c2cc3ncccc3c3[nH]c(=O)c4cccnc4c23)cc(OC)c1OC
5. COc1ccc2c3c(c4ccccc4cc13)C(=O)N(CCN(C)CCN)C2=O
6. CC(C)(C)c1cc(-n2c(-c3ccc(Cl)cc3)nc3cc(C(=O)Nc4ccc(Cl)cc4)ccc32)n[nH]1

Result block:
[95.6, 34.2, 101, -3.08, -94.3, 65.7]

Please give growth, item by item, for the list that follows.
1. COc1ccc(C2C(C#N)=C(N)Oc3c2sc2c(F)cccc32)cc1 (configuration not stated)
2. Cn1cc(-c2nc(-c3c[nH]c4ncccc34)cs2)c2cc(Cl)ccc21
3. Cn1c(/C(C#N)=C/c2ccc3ccccc3c2)cc2ccccc21
4. Cn1c(=O)c2c(ncn2CC(=O)Nc2ccc(S(N)(=O)=O)cc2)n(C)c1=O

Result block:
1. -8.26
2. 63.4
3. 41.1
4. 106

For each of the molecules below, note its growth.
1. CC(=O)O[C@H]1CC[C@]2(C)[C@H]3C(=O)C=C4[C@@H]5C[C@](C)(C(=O)N6CCCNCC6)CC[C@]5(C)CC[C@@]4(C)[C@]3(C)CC[C@H]2C1(C)C
2. CC(C)=CCC/C(C)=C/CC/C(C)=C/CSC[C@H](NC(=O)CCCCCN1CCN(C)CC1)C(=O)NC1CCCCCC1

Result block:
-89.4
80.3

Record growth per entry; entries follow.
1. CC1(C)[C@@H](O)CC[C@]2(C)[C@H]3CC[C@@H]4[C@H]5[C@H](C(=O)/C=C/c6ccc(C(F)(F)F)cc6)CC[C@]5(CO)CC[C@@]4(C)[C@]3(C)CC[C@@H]12
2. COc1cc(-c2cc(-c3nc4ccccc4[nH]3)[nH]n2)cc(OC)c1OC

Result block:
32.3
49.2
